SYSTEM NAME: UniProt P53341
Sequence (P53341 whole entry): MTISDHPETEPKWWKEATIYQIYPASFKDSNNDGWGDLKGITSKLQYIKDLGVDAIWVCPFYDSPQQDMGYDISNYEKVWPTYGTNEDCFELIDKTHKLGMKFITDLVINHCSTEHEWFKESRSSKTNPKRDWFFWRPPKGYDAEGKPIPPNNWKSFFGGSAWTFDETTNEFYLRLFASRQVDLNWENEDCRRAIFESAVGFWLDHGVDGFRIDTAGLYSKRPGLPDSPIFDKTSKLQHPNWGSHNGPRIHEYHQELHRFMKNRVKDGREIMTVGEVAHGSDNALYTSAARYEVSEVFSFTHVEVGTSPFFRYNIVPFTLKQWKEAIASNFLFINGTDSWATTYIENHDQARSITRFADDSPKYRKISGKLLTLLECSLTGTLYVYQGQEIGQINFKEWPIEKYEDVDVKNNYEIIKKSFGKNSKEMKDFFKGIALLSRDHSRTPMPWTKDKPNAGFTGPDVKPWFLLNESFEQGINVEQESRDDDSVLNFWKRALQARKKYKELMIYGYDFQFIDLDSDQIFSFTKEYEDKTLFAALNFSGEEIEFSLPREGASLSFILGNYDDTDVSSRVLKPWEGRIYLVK
pIC50: −log10 of the molar value.
OBSERVATION TYPE: pIC50

Recorded pIC50, per entry:
SMILES STR	VALUE
CCCCNC(=O)/C=C/c1ccc(O)c(O)c1	4.42
CCCCCCNC(=O)/C=C/c1ccc(O)c(O)c1	4.29
CCCCCCCCCCCCCCCCNC(=O)/C=C/c1ccc(O)c(O)c1	4.61
CCCCCCCCCCNC(=O)/C=C/c1ccc(O)c(O)c1	4.72
CCCCCCCCNC(=O)/C=C/c1ccc(O)c(O)c1	4.86

(I) CCCCCCCCCCCCCCNC(=O)/C=C/c1ccc(O)c(O)c1
(II) CCCCCCCCCCCCNC(=O)/C=C/c1ccc(O)c(O)c1
Which value of pIC50 is smaller, the one for I or the one for II ? Use the label to indicate which entry you chose. II
(II: 4.76, I: 5.71)
